Measured inhibition, listed per entry.
- SYSTEM: Serine/threonine-protein kinase D2 (Homo sapiens);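 note: reported percent inhibition values are means, part of the GSK PKIS kinase panel screen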
- Sequence (whole entry): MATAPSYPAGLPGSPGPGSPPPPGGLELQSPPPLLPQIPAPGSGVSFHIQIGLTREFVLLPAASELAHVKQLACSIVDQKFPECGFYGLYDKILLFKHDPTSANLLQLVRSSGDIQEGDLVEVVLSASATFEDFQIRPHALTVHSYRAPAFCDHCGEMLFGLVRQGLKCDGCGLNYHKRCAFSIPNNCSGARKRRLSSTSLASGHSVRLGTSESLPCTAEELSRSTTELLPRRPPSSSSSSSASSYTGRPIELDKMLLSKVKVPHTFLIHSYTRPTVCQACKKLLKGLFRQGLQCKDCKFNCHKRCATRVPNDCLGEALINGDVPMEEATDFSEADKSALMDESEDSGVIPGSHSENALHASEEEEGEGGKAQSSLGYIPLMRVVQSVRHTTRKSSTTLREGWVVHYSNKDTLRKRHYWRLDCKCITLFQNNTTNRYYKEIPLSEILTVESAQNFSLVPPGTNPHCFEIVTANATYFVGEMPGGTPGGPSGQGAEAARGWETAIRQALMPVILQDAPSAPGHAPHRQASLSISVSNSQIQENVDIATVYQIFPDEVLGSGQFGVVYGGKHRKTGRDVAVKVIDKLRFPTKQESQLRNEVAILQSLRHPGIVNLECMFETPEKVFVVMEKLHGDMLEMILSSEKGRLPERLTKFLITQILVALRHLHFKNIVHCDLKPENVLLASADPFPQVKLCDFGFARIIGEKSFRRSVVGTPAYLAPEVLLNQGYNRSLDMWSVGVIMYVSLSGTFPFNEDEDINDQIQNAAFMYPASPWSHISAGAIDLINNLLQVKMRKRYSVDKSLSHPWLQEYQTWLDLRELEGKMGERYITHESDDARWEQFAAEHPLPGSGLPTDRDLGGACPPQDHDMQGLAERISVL
- ASSAY_CONTEXT: at 0.1 µM
Your answer should be a plain number; it is taken to be in %.

Known inhibition results, listed for orientation:
ON=C1CCc2cc(-c3nc(C4CCNCC4)[nH]c3-c3ccncc3)ccc21
1.54
C[C@@H](Oc1cc(-n2cnc3ccc(OCC4CCN(C)CC4)cc32)sc1C(N)=O)c1ccccc1C(F)(F)F
2.29
COC(=O)Nc1nc2cc(Oc3ccc(NC(=O)Nc4cccc(Br)c4)cc3)ccc2[nH]1
4.58
O=C1Nc2ccc(-c3cccnc3)cc2C1=Cc1cc(Br)c(O)c(Br)c1
3.88
NC(=O)c1sc(-n2cnc3ccccc32)cc1OCc1ccccc1Br
7.73
CCn1c(-c2nonc2N)nc2ccc(F)cc21
5.68

# input Please report inhibition for the following compound: "CN(C)C(=O)O[C@H]1CN[C@H](C#Cc2cc3ncnc(Nc4ccc(OCc5cccc(F)c5)c(Cl)c4)c3s2)C1"
# output 2.3

# input Fill in inhibition for record "Cc1nc(-c2ccccc2)n2nc(NCCCN3CCOCC3)ncc12"
# output 2.7

# input Consider the compound "COc1cccc(-n2ncc3c(N/N=C/c4ccc(C)cc4)ncnc32)c1" and give its recorded inhibition.
# output 6.6
